- target.system: T1, PCSK9Δhelix (human, Chemically biotinylated in the phage ELISAs; the site is not given.)
- T1 construct: construct M1-Q692 with engineered TEV site, cleaved by TEV; also called His-PCSK9Δhelix; open groove PCSK9Δhelix
- T1 sequence (prodomain, as listed by the source mutant limits assumed, chain 1 of 2): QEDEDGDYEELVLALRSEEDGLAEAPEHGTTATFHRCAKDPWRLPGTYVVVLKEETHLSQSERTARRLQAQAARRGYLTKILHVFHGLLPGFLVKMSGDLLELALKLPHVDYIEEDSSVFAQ
- T1 sequence (chain, as listed by the source mutant limits assumed, chain 2 of 2): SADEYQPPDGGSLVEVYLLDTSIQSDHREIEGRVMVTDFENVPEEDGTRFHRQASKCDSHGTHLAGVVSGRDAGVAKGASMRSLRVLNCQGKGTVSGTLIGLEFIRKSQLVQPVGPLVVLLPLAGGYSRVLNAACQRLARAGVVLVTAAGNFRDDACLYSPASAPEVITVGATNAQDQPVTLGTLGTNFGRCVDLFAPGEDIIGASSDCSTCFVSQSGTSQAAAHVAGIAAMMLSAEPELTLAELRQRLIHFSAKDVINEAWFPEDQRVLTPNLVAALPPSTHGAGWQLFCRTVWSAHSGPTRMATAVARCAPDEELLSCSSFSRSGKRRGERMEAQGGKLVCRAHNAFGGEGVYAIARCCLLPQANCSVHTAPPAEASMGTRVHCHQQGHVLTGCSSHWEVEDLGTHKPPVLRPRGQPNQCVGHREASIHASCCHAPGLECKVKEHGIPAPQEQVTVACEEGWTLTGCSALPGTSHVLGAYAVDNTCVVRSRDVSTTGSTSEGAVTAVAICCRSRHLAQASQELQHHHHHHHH
- assay: phage spot ELISA
measured.property: ELISA

>  <binder>
TAFTSWEEYLDWVGSGCYPLCRVG [SEQ ID NO 355]

>  <measured.property>
ELISA

>  <reported.result>
3.05

$$$$
>  <binder>
TAFTSWEEYLDWVGSGGDCGYHYMCSMT [SEQ ID NO 345]

>  <measured.property>
ELISA

>  <reported.result>
2.63

$$$$
>  <binder>
TAFTSWEEYLDWVGSGDCNLWGDDGKYRLCF [SEQ ID NO 333]

>  <measured.property>
ELISA

>  <reported.result>
2.81

$$$$
>  <binder>
TAFTSWEEYLDWVGSGKMTHMKAD [SEQ ID NO 357]

>  <measured.property>
ELISA

>  <reported.result>
0.106

$$$$
>  <binder>
TAFTSWEEYLDWVGSGSPCRVGYTPC [SEQ ID NO 351]

>  <measured.property>
ELISA

>  <reported.result>
2.87

$$$$
>  <binder>
TAFTSWEEYLDWVGSGQCYPWCRL [SEQ ID NO 338]

>  <measured.property>
ELISA

>  <reported.result>
2.65

$$$$
>  <binder>
TAFTSWEEYLDWVGSGCWTYLRGGCSVT [SEQ ID NO 339]

>  <measured.property>
ELISA

>  <reported.result>
3.05

$$$$
